# Assay system: KRas^G12R (Homo sapiens, UniProt P01116, G12R)
# Construct: […]; biotin (biotinylated)
# Sequence (P01116 1-169 isoform P01116-2 G12R): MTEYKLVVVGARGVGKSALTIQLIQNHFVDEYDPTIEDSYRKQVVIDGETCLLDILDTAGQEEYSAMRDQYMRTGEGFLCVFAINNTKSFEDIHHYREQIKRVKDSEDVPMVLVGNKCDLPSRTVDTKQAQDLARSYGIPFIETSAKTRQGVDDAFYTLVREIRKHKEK
# Assay notes: KRas binding assay (TR-FRET displacement of Cy5 labelled tracer)
pIC50: −log10 of the molar value.
Metric: pIC50

CCc1cccc2cccc(N3CCc4c(nc(OCC56CCCN5CCC6)nc4N4CCCC(c5nc(C)no5)C4)C3)c12 (stereo not drawn) [Example 162] ... 5.55

a: CN1CCC[C@H]1COc1nc2c(c(N3CCCC4(CNC(=O)N4)C3)n1)CCN(c1cccc3cccc(Cl)c13)C2 (stereo partly drawn) [Example 210]
b: Oc1cc(N2CCc3c(nc(OC[C@@]45CCCN4C[C@H](F)C5)nc3N3CC4CC(O)C(C4)C3)C2)c2c(Cl)c(F)ccc2c1 (stereo partly drawn) [Example 227]
Lookup: Lab note: check whether a or b has the lower measured pIC50. Use the label to indicate which entry you chose.
Found: a

P: CCc1cccc2cccc(N3CCc4c(nc(OCC56CCCN5CCC6)nc4N4CCOC(CC(N)=O)C4)C3)c12 (stereo not drawn) [Example 103]
Q: OCC1COCCN(c2nc(OC[C@@]34CCCN3C[C@H](F)C4)nc3c2CCN(c2cc(O)cc4ccc(F)c(Cl)c24)C3)C1 (stereo partly drawn) [Example 73]
Lookup: API: POST /compare with P and Q ; response names the item with higher pIC50. Use the label to indicate which entry you chose.
Found: Q

P: CCc1c(F)ccc2cccc(N3CCc4c(nc(OCC56CCCN5CCC6)nc4N4CCC[C@@](C)(O)C4)C3)c12 [Example 3]
Q: CCc1cccc2cccc(N3CCc4c(nc(OCC56CCCN5CCC6)nc4N4CCOCC(CO)C4)C3)c12 (stereo not drawn) [Example 37]
Lookup: Lab note: check whether P or Q has the lower measured pIC50. Use the label to indicate which entry you chose.
Found: Q

I: CCc1cccc2cccc(N3CCc4c(nc(OCC56CCCN5CCC6)nc4N4CCC(n5ccnn5)CC4)C3)c12 [Example 151]
II: CCc1cccc2cccc(N3CCc4c(nc(OCC56CCCN5CCC6)nc4N4C[C@@H](C)C[C@H](O)C4)C3)c12 [Example 97]
III: O=C1NC(=O)C2CN(c3nc(OCC45CCCN4CCC5)nc4c3CCN(c3cccc5cccc(Cl)c35)C4)CC12 (stereo not drawn) [Example 79]
IV: CCc1cccc2cccc(N3CCc4c(nc(OCC56CCCN5CCC6)nc4Nc4cccnc4)C3)c12 [Example 5]
V: O=C1NC(=O)C2CN(c3nc(OCC45CCCN4CCC5)nc4c3CCN(c3cccc5cccc(Br)c35)C4)CC12 (stereo not drawn) [Example 78]
Lookup: List these items ordered by pIC50, big to small. Provide the ranking by listing each label in its place in the requested order.
Found: V, III, II, I, IV
(V: 7.09, III: 6.87, II: 6.30, I: 5.79, IV: 5.09)

###

# Assay system: KRas^G12S (Homo sapiens, UniProt P01116, G12S)
# Construct: […]; biotin (biotinylated)
# Sequence (P01116 1-169 isoform P01116-2 G12S): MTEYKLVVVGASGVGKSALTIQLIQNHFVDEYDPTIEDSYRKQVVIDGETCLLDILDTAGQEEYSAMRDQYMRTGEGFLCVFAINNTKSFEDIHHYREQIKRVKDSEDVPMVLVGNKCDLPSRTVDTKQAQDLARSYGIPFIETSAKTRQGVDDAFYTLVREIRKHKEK
# Assay notes: KRas binding assay (TR-FRET displacement of Cy5 labelled tracer)
pIC50: −log10 of the molar value.
Metric: pIC50

CCc1cccc2cccc(N3CCc4c(nc(OCC56CCCN5CCC6)nc4N4CCCC(c5nc(C)c(C(=O)NC6CCC6)o5)C4)C3)c12 (stereo not shown) [Example 140] ... 5.70
CCc1cccc2cccc(N3CCc4c(nc(OCC56CCCN5CCC6)nc4N4CCCn5nc(C)cc5C4)C3)c12 [Example 56] ... 5.69
CCc1cccc2cccc(N3CCc4c(nc(OCC56CCCN5CCC6)nc4N4CCC(OCC(N)=O)CC4)C3)c12 [Example 89] ... 6.14
CCc1cccc2cccc(N3CCc4c(nc(OCC56CCCN5CCC6)nc4N4CC(CO)OC5(CCC5)C4)C3)c12 (stereo not shown) [Example 129] ... 5.67

1: CCc1cccc2cccc(N3CCc4c(nc(OCC56CCCN5CCC6)nc4N4CCCC(n5nccn5)C4)C3)c12 (stereo not shown) [Example 132]
2: CCc1cccc2cccc(N3CCc4c(nc(OCC56CCCN5CCC6)nc4N4CCC(c5[nH]ncc5N)C4)C3)c12 (stereo not shown) [Example 46]
Lookup: Lab note: check whether 1 or 2 has the lower measured pIC50. Use the label to indicate which entry you chose.
Found: 1
(1: 5.78, 2: 6.21)

###

# Assay system: KRas^G12D (Homo sapiens, UniProt P01116, G12D)
# Construct: […]; biotin (biotinylated)
# Sequence (P01116 1-169 isoform P01116-2 G12D): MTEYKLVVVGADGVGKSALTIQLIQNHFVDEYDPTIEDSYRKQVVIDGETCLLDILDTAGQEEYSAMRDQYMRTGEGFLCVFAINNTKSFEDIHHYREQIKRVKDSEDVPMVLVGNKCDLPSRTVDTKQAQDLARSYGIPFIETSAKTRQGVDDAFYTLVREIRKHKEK
# Assay notes: KRas binding assay (TR-FRET displacement of Cy5 labelled tracer)
Metric: IC50 (nM)

Please review the entries below; each comes with its answer.
CCc1cccc2cccc(N3CCc4c(nc(OCC56CCCN5CCC6)nc4N4CCCC(O)(C(F)(F)F)C4)C3)c12 (centres unmarked) ... 726
CCc1cccc2cccc(N3CCc4c(nc(OCC56CCCN5CCC6)nc4N4CCC(OCC(N)=O)CC4)C3)c12 ... 7110
CN1CCC[C@H]1COc1nc2c(c(N3CCCC4(C3)NC(=O)NC4=O)n1)CCN(c1cccc3cccc(Cl)c13)C2 (some centres unmarked) ... 101
CCc1cccc2cccc(N3CCc4c(nc(OCC56CCCN5CCC6)nc4N4CCCCC(C)C4)C3)c12 (centres unmarked) ... 1050
CCc1cccc2cccc(N3CCc4c(nc(OCC56CCCN5CCC6)nc4N4CCOCC(n5cccn5)C4)C3)c12 (centres unmarked) ... 192

a: CC1(O)COCCN(c2nc(OC[C@@]34CCCN3C[C@H](F)C4)nc3c2CCN(c2cc(O)cc4ccc(F)c(Br)c24)C3)C1 (some centres unmarked)
b: CCc1cccc2cccc(N3CCc4c(nc(OCC56CCCN5CCC6)nc4N4CC[C@H]5C(=O)NC[C@H]5C4)C3)c12
c: CN1CCC[C@H]1COc1nc2c(c(N3CCCC4(CNC(=O)N4)C3)n1)CCN(c1cccc3cccc(Cl)c13)C2 (some centres unmarked)
d: CCc1cccc2cccc(N3CCc4c(nc(OCC56CCCN5CCC6)nc4N4CC(CO)OC5(CCC5)C4)C3)c12 (centres unmarked)
e: CCc1cccc2cccc(N3CCc4c(nc(OCC56CCCN5CCC6)nc4N4CCCN(C(N)=O)CC4)C3)c12
Lookup: Put these in order: smallest IC50 first, largest last. Provide the ranking by listing each label in its place in the requested order.
Found: a, c, e, b, d
(a: 3 nM, c: 579 nM, e: 4700 nM, b: 8520 nM, d: 16000 nM)

###

# Test system: PSN1 cells, pERK
# Assay notes: Inhibition of KRas phosphorylation of ERK (Cisbio HTRF Advanced pERK assay)
# Type: cell-based
# Condition info: Homo sapiens, PSN1, 3 h, read-out: Inhibition (HTRF IC50 nM) of KRas-mediated Phosphorylation of ERK, PSN1
Metric: IC50 (nM)

Please review the entries below; each comes with its answer.
CCc1c(F)ccc2cc(O)cc(N3CCc4c(nc(OCC5(CN(C)C)CC5)nc4N4CCC[C@@](C)(O)C4)C3)c12 [Example 199] ... 2500
Oc1cc(N2CCc3c(nc(OC[C@@]45CCCN4C[C@H](F)C5)nc3N3CC4CC(O)CC3C4)C2)c2c(Br)c(F)ccc2c1 (single isomer, unassigned) [Example 213] ... 6500
OCC1COCCN(c2nc(OC[C@@]34CCCN3C[C@H](F)C4)nc3c2CCN(c2cc(O)cc4ccc(F)c(Br)c24)C3)C1 (stereo partly drawn) [Example 220] ... 4100
Oc1cc(N2CCc3c(nc(OC[C@@]45CCCN4C[C@H](F)C5)nc3N3CC4CC(O)C(C4)C3)C2)c2c(Br)c(F)ccc2c1 (stereo partly drawn) [Example 215] ... 7580
CCc1c(F)ccc2cc(O)cc(N3CCc4c(nc(OCC5(CN(C)C)CC5)nc4N4C[C@@H]5C(=O)NC(=O)[C@@H]5C4)C3)c12 [Example 200] ... 9110

A: CCc1c(F)ccc2cc(O)cc(N3CCc4c(nc(OC[C@@]56CCCN5C[C@H](F)C6)nc4N4CCCn5nc(C(=O)N6CCOCC6)cc5C4)C3)c12 [Example 193]
B: CCc1c(F)ccc2cc(O)cc(N3CCc4c(nc(OC[C@@]56CCCN5C[C@H](F)C6)nc4N4CCCn5nncc5C4)C3)c12 [Example 178]
Lookup: Lab note: check whether A or B has the lower measured IC50. Use the label to indicate which entry you chose.
Found: A
(A: 2100 nM, B: 7620 nM)

I: CCc1c(F)ccc2cc(O)cc(N3CCc4c(nc(OC[C@@]56CCCN5C[C@H](F)C6)nc4N4CCCn5nc(C(=O)N(C)C)c(C)c5C4)C3)c12 [Example 189]
II: OCC1COCCN(c2nc(OC[C@@]34CCCN3C[C@H](F)C4)nc3c2CCN(c2cc(O)cc4ccc(F)c(Cl)c24)C3)C1 (stereo partly drawn) [Example 73]
III: O=C1CC2(CCCN(c3nc(OC[C@@]45CCCN4C[C@H](F)C5)nc4c3CCN(c3cc(O)cc5ccc(F)c(Br)c35)C4)C2)N1 (stereo partly drawn) [Example 223]
Lookup: List these items ordered by IC50, big to small. Provide the ranking by listing each label in its place in the requested order.
Found: II, I, III
(II: 6380 nM, I: 2680 nM, III: 607 nM)

A: CCc1c(F)ccc2cc(O)cc(N3CCc4c(nc(OC[C@@]56CCCN5C[C@H](F)C6)nc4N4CCCn5nc(C(=O)N(C)C)c(F)c5C4)C3)c12 [Example 190]
B: CN(C)C(=O)c1cc2n(n1)CCCN(c1nc(OC[C@@]34CCCN3C[C@H](F)C4)nc3c1CCN(c1cc(O)cc4ccc(F)c(Cl)c14)C3)C2 [Example 229]
Lookup: Lab note: check whether A or B has the lower measured IC50. Use the label to indicate which entry you chose.
Found: B
